Biological target: human growth hormone secretagogue receptor (hGHS-R1a) (Homo sapiens)
Construct: purchased PerkinElmer BioSignal #RBHGHSM; host or cells: HEK-293, stably transfected
Sequence (Q92847 whole entry): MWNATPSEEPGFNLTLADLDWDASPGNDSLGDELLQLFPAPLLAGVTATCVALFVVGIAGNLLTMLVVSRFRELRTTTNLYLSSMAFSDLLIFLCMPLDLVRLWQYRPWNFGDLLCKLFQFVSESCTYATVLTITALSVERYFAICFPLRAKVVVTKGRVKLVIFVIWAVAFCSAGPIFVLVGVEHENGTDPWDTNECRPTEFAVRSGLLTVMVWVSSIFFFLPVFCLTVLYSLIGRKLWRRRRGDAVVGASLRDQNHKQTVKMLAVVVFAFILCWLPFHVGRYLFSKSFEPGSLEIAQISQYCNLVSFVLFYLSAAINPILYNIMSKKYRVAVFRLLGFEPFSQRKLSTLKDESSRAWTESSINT
Assay: Competitive radioligand binding assay (ghrelin receptor), [125I]-ghrelin displacement on GHS-R/HEK 293 membranes
Details: Binding activity at the human ghrelin receptor, [125I]-ghrelin displacement; read-out: Ki
recorded-metric: Ki

> print(dat)
                                    compound     readout.value
 1  O=C(O)CC[C@@H]1NCCOc2ccccc2CCCNC(=O)[C@H](Cc2ccccc2)NC(=O)C2(CCCC2)NC1=O        > 10000 nM
 2  CCC(C)[C@@H]1NCCOc2ccccc2CCCNC(=O)[C@@H](Cc2ccc(OC)cc2)NC(=O)[C@@H](C)N(C)C1=O (some centres unmarked)      0.1 to 10 nM
 3  CC(C)C[C@@H]1NCCOc2ccccc2CCCNC(=O)[C@H](CCc2ccccc2)NC(=O)C2(CCCC2)NC1=O  1000 to 10000 nM
 4  O=C1NC/C=C/c2ccccc2OCCN[C@@H](C(c2ccccc2)c2ccccc2)C(=O)NC2(CCCC2)C(=O)N[C@H]1Cc1ccccc1        > 10000 nM
 5  CC(C)C[C@@H]1NCCOc2ccccc2CCCNC(=O)[C@H](Cc2ccc(O)cc2)NC(=O)C2(CCCC2)NC1=O  1000 to 10000 nM
 6  O=C1NC/C=C/c2ccccc2OCCNC2(CCCC2)C(=O)NC2(CCCC2)C(=O)N[C@H]1Cc1ccccc1      10 to 100 nM
 7  CC(C)C[C@@H]1NCCOc2ccccc2/C=C/CNC(=O)[C@H](Cc2ccccc2)NC(=O)C2(CCCC2)NC1=O      10 to 100 nM
 8  CCC(C)[C@@H]1NC[C@@H](C)Oc2ccccc2CCCNC(=O)[C@@H](Cc2ccccc2)NC(=O)[C@@H](C)N(C)C1=O (some centres unmarked) [compound 36]      10 to 100 nM
 9  CC(C)[C@@H]1NCCOc2ccccc2CCCNC(=O)[C@H](Cc2ccccc2)NC(=O)C2(CCCC2)NC1=O    100 to 1000 nM
10  CCC[C@@H]1NCCOc2ccccc2CCCNC(=O)[C@@H](Cc2c[nH]c3ccccc23)NC(=O)CN(C)C1=O    100 to 1000 nM
11  CCC[C@@H]1NCCOc2ccccc2CCCNC(=O)[C@@H](CCC(=O)O)NC(=O)CN(C)C1=O        > 10000 nM
12  C[C@@H]1C(=O)N[C@H](Cc2ccccc2)C(=O)NCCCc2ccccc2OCCN[C@@H](C2CC2)C(=O)N1C      0.1 to 10 nM
13  CC(C)C[C@@H]1NCCOc2ccccc2CCCNC(=O)[C@H](Cc2ccccc2)NC(=O)C(C)(C)NC1=O  1000 to 10000 nM
14  CCC[C@@H]1NCCOc2ccccc2CCCNC(=O)[C@@H](Cc2ccc(O)cc2)NC(=O)CN(C)C1=O    100 to 1000 nM

Cited source for all entries: patent US20180110824A1
